System: UACC-257 melanoma
assayNotes: NCI-60 one-dose screen, 48 h
measurementContext: 10 µM unless noted
Procedure: Cells are grown in 96 well plates and exposed to the test compound for 48 hours. Compounds are tested at a single concentration, which is 10^-5 M for most compounds. The reported endpoint is percent growth (GI% or GIPRCNT), where numbers from 0 - 100% represent growth inhibition, and numbers from -100% - 0 represent cell death. For example, a value of 40 represents 60% growth inhibition. A value of 0 means no net growth occurred over the course of the experiment. […]
The panel holds about 83,000 compounds, 20% with a hit somewhere; the sample as a whole holds those more often. Activity calls are given as the source filed them. The calls were made as follows: active = growth percent below 10; inactive = the rest.
Write down one outcome, taken from active, inactive

compound=CCOC(=O)c1sc(NC(=O)COc2cccc(/C=C3\Cc4ccc(Cl)cc4C3=O)c2)nc1C system="UACC-257 melanoma" qualitativelabel=inactive
compound=c1ccc(Nc2ccc(Nc3nc(-c4ccccc4)nc4ccccc34)cc2)cc1 system="UACC-257 melanoma" qualitativelabel=inactive
compound=O=C(Nc1ccccc1)c1cc(-n2cnc([N+](=O)[O-])c2)cc(-n2cnc([N+](=O)[O-])c2)n1 system="UACC-257 melanoma" qualitativelabel=inactive
compound="BrC1CC(Br)c2c1c1c(c3c2C(Br)CC3Br)C(Br)CC1Br (centres undefined)" system="UACC-257 melanoma" qualitativelabel=inactive

What is the recorded call for this compound in the test? Nc1nc(NC2CC2)c2ncn(C3C=CC(CO)C3)c2n1 (centres undefined)
inactive

What is the recorded call for this compound in the test? `N#Cc1c(NC(=O)c2ccco2)[n+]([O-])c2cc(Cl)c(Cl)cc2[n+]1[O-]`
inactive

* * *

Test system: 786-0 renal
assayNotes: NCI-60 one-dose screen, 48 h (100 = growth as untreated, 0 = no growth, -100 = all killed)
measurementContext: 10 µM unless noted
Description: Cells are grown in 96 well plates and exposed to the test compound for 48 hours. Compounds are tested at a single concentration, which is 10^-5 M for most compounds. The reported endpoint is percent growth (GI% or GIPRCNT), where numbers from 0 - 100% represent growth inhibition, and numbers from -100% - 0 represent cell death. For example, a value of 40 represents 60% growth inhibition. A value of 0 means no net growth occurred over the course of the experiment. […]
This is part of a sample that, as a whole, favours compounds with a hit. Of some 83,000 tested, about 20% had one in any assay. Active and inactive are the calls of the source. The calls were made as follows: active = growth percent below 10; inactive = the rest.
endpoint: growth

Give growth for the following compound: `CC(=O)c1ccccc1NC(=O)C(C)(c1ccccc1)c1ccccc1`
92.5% (inactive)

Give growth for the following compound: `N=C1c2nc3n(c2C(=O)c2nc4n(c21)CCCCC4)CCCCC3`
120% (inactive)

Give growth for the following compound: `Cc1nn(-c2ccccc2)cc1/C=C1\SC(N2CCCCC2)=NC1=O`
83.6% (inactive)

* * *

Test system: MCF7 breast
assayNotes: NCI-60 one-dose screen, 48 h
measurementContext: 10 µM unless noted
Compounds without any hit were thinned out: in the full panel of roughly 83,000, 20% have a hit. The source made the active and inactive calls. The calls were made as follows: active = growth percent below 10; inactive = the rest.
Write down one outcome, taken from active, inactive

Reference set, count: 3
mol=Cc1cc2ccccn2c1C(=O)c1ccc(C(=O)c2ccccc2)cc1 qualitativelabel=inactive
mol=COc1cc(-c2nnc(-c3nc(-c4cc(OC)c(OC)c(OC)c4)n4ccccc34)o2)ccc1N qualitativelabel=inactive
mol=COc1ccc2c(c1)[n+](=O)c(/C=C/C(=O)c1cc(OC)c(OC)c(OC)c1)c(C)n2[O-] qualitativelabel=inactive

What is the recorded call for this compound in the test? `Cn1cc(NC(=O)Nc2cc(C(=O)O)n(C)c2)cc1C(=O)O`
inactive

* * *

Tested on: TK-10 renal
assayNotes: NCI-60 one-dose screen, 48 h
measurementContext: 10 µM unless noted
About 83,000 compounds went through this panel and 20% of them were active in at least one assay; those are over-represented in the sample as a whole. Activity calls are given as the source filed them. Rule for the calls: active = growth percent below 10; inactive = the rest.
Write down one outcome, taken from active, inactive

Reference set, count: 5
compound=COc1cc(-c2nc3nc4sc(C)c(C)c4c(=O)n3[nH]2)cc(OC)c1OC qualitativelabel=inactive
compound=Cc1ccccc1NC(=O)N/C(N)=N/c1nc2ccccc2s1 qualitativelabel=inactive
compound=CCCCCc1c(C)[nH]c(/C=C2\N=C(c3ccc[nH]3)C=C2Oc2ccc(Cl)cc2)c1C qualitativelabel=active
compound="Clc1ccc2c(c1)C(Br)c1cc(Cl)cc(Cl)c1-2 (centres undefined)" qualitativelabel=inactive
compound="CC(=O)N1N=C(c2ccc(Cl)cc2)CC1c1c(C)nn(-c2ccccc2)c1N(C)Cc1ccccc1 (centres undefined)" qualitativelabel=inactive

What is the recorded call for this compound in the test? CC1c2ccccc2-c2ccccc2N1C (centres undefined)
inactive

What is the recorded call for this compound in the test? `CC(=O)Nc1ccc(C(=O)COc2cccc(/C=C3\CCc4ccccc4C3=O)c2)cc1`
inactive

What is the recorded call for this compound in the test? `Cc1ccc(N/N=C(/C(=O)c2ccc(Cl)cc2)c2nc(C)cc(=O)[nH]2)cc1`
inactive

What is the recorded call for this compound in the test? COC(=O)C1=CCC(n2cnc3c(N)ncnc32)O1 (centres undefined)
inactive

What is the recorded call for this compound in the test? COc1cc(C2=NN(C=O)C(c3cccc(Nc4ccnc5cc(Cl)ccc45)c3)C2)cc(OC)c1OC (centres undefined)
inactive

What is the recorded call for this compound in the test? `COc1cc(/C=N/NC(=O)c2ccc(C(F)(F)F)nc2Nc2cc(Cl)ccc2C)cc(OC)c1OC`
inactive

What is the recorded call for this compound in the test? `CCOC(=O)/C(=C/CC/C(C)=C/CC/C(C)=C/CCc1ccoc1)CC(=O)N1CCCCC1`
inactive

What is the recorded call for this compound in the test? `O=C(Nc1nc2c(C(F)(F)F)cccc2s1)c1cc(Cl)ccc1O`
inactive

What is the recorded call for this compound in the test? `Cc1cc(Cl)ccc1Nc1nc(C(F)(F)F)ccc1C(=O)N/N=C/c1ccc(Cl)cc1`
active

* * *

Below, each of the compounds is paired with its reported growth value.
System: DU-145 prostate
assayNotes: NCI-60 one-dose screen, 48 h (100 = growth as untreated, 0 = no growth, -100 = all killed)
measurementContext: 10 µM unless noted
This is part of a sample that, as a whole, favours compounds with a hit. Of some 83,000 tested, about 20% had one in any assay.
// return numeric value only (unit: %, not printed)

Example entries begin here.
compound="CCCCCCCCCCCCC1CCCC(C)C1 (centres undefined)" value=109
compound=CCOc1cc(/C=C/C(=O)C(C(=O)/C=C/c2ccc(OC(=O)CNc3nc4ccccc4[nH]3)c(OCC)c2)C(=O)CNc2nc3ccccc3[nH]2)ccc1OC(=O)CNc1nc2ccccc2[nH]1 value=-24.8
compound=COc1ccc2c(c1)sc1nc(-c3ccc(N(C)C)cc3)cn12 value=103

Give growth for the following compound: `CC(=O)c1nn(-c2ccccc2)c(=Nc2ccccc2)cc1C`
107

Give growth for the following compound: CCCCCCCCCCCCCCCCCC1=NC(C)(CO)CO1 (centres undefined)
102

Give growth for the following compound: `CCOC(=O)Nc1ccc2c3c(cccc13)-c1ccccc1-2`
66.1

Give growth for the following compound: `CCOC(=O)CCC(=O)O[C@H]1[C@H](O[C@@H]2[C@@H](C)[C@H](O[C@H]3C[C@@](C)(OC)[C@@H](O)[C@H](C)O3)[C@@H](C)C(=O)O[C@H](CC)[C@@](C)(O)[C@H](O)[C@@H](C)C(=O)[C@H](C)C[C@@]2(C)O)O[C@H](C)C[C@@H]1N(C)C`
119

Give growth for the following compound: `CSc1nc(N)c2c(n1)N(C)C=NS2(=O)=O`
122

Give growth for the following compound: `COc1ccc2c(c1)[n+](=O)c(C(=O)/C=C/c1cc(OC)c(OC)c(OC)c1)c(C)n2[O-]`
47.6

Give growth for the following compound: CC(C)CC1NC(=O)C(CCCN)NC(=O)C(C(C)C)NC(=O)C2CCCN2C(=O)C(Cc2ccccc2)NC(=O)C(CC(C)C)NC(=O)C(CCCN)NC(=O)C(C(C)C)NC(=O)C2CCCN2C(=O)C(Cc2ccccc2)NC1=O (centres undefined)
-52.5

Give growth for the following compound: NS(=O)(=O)c1ccc(N2CC(c3nc4ccccc4[nH]3)CC2=O)cc1 (centres undefined)
109

Give growth for the following compound: `COc1cc(/C=C/C(=O)c2c(C)n([O-])c3ccccc3[n+]2=O)cc(OC)c1OC`
32.6

Give growth for the following compound: `COc1ccc(-c2c3c(N)nc(-c4ccncc4)nc3nc3c2c(C)nn3-c2ccccc2)cc1`
82

Give growth for the following compound: C/C(=C\CCc1ccoc1)CC/C=C(\C)CCCC1COC(=O)C1 (centres undefined)
105

* * *

System: CAKI-1 renal
assayNotes: NCI-60 one-dose screen, 48 h
measurementContext: 10 µM unless noted
About 83,000 compounds went through this panel and 20% of them were active in at least one assay; those are over-represented in the sample as a whole. Calls of active or inactive are those of the source. How the source made its calls: active means growth percent below 10; inactive means the rest.
Write down one outcome, taken from 1 (yes) = active, 0 (no) = inactive

compound=CSc1nc2nc3c(nc2c(=O)n1C)C(=O)c1ccccc1C3=O qualitativelabel="1 (yes)"
compound="C/C(=C\\CCc1ccoc1)CC/C=C(\\C)CCCC1COC(=O)C1 (centres undefined)" qualitativelabel="0 (no)"
compound=COc1ccc2cc(C3=CC(=O)CCC3)ccc2c1 qualitativelabel="0 (no)"

Please examine the following record next.
What is the recorded call for this compound in the test? `CC(C)Sc1nc(-c2ccc(Br)cc2)c(C#N)c(N2CCCCC2)n1`
0 (no)

Data origin: PubChem BioAssay (NCI)
